System: LG0703-F948-PDC complex spheroid viability;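 note: spheroids exposed to agents for seven days before readout; 100% = DMSO vehicle control wells as normalization base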
methodDescription: Anticancer human tumor LG0703-F948-PDC patient-derived lung adenocarcinoma cell line growth inhibition
testSettings: second compound 0.316 µM; first compound 0.316 µM; hits give low values
quantity: viability, T/C (%)
Report as a plain number; the unit % is understood.

q: Which measured viability, T/C value corresponds to O=C(c1cc(Cc2n[nH]c(=O)c3ccccc23)ccc1F)N1CCN(C(=O)C2CC2)CC1 + NC1CCC(NC2CC2c2ccccc2)CC1 ?
a: 106

q: Data request, read-out viability, T/C, for O=C(c1cc(Cc2n[nH]c(=O)c3ccccc23)ccc1F)N1CCN(C(=O)C2CC2)CC1 + NC1CC1c1ccc(-c2cccc(O)c2)cc1
a: 124

q: So what does the record say about viability, T/C for Nc1ncn(C2CC(O)C(CO)O2)c(=O)n1 (stereo not given) + NC1CCC(NC2CC2c2ccccc2)CC1 ?
a: 102

q: Please report the recorded viability, T/C for CC(C)c1c(-c2ccccc2)nc2c(C#N)c[nH]n2c1=O + NC1CC1c1ccc(-c2cccc(O)c2)cc1 .
a: 117

q: Give the measured viability, T/C of O=C(C=Cn1cnc(-c2cc(C(F)(F)F)cc(C(F)(F)F)c2)n1)NNc1cnccn1 + NC1CCC(NC2CC2c2ccccc2)CC1 .
a: 33
